B1: CROP (parent)
chain: VFGRGDNISDVSKFLEDDKWMEE

# Variants of: B1
# test_method_notes: protein stability index of a GFP-peptide fusion (GPS, HEK-293T) (PSI 1-6); higher = more stable;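 note: lentivirally expressed fusions sorted by FACS into six bins by GFP to DsRed ratio, PSI derived from sequencing read proportions per bin multiplied by bin number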
# condition_summary: c terminus: native
protein stability index reference

[
  {
    "var": "W20A",
    "protein stability index": 4.2
  },
  {
    "var": "M21D",
    "protein stability index": 4.49
  },
  {
    "var": "N7A",
    "protein stability index": 1.68
  },
  {
    "var": "E16M",
    "protein stability index": 1.1
  },
  {
    "var": "I8K",
    "protein stability index": 2.23
  },
  {
    "var": "F2S",
    "protein stability index": 2.83
  },
  {
    "var": "F2Y",
    "protein stability index": 1.66
  },
  {
    "var": "G5K",
    "protein stability index": 3.07
  },
  {
    "var": "S12I",
    "protein stability index": 2.32
  },
  {
    "var": "W20G",
    "protein stability index": 3.92
  },
  {
    "var": "E16A",
    "protein stability index": 2.44
  }
]

Measured values drawn from the supplement of paper PMC10567573 for this set.
